# pEC50 per record follows
target: T1, His-tagged human TSLP antigen (huTSLP-his) (human); assay: ELISA, coated huTSLP-his;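 further: binding of antibodies to plate-bound TSLP read as absorbance at 450 nm after TMB colour development, EC50 derived from binding curves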
T1 construct: Secreted from HEK293E and purified on nickel; whole entry named; also called Human TSLP-his
pEC50 is a log-scale quantity: -log10 of the concentration expressed in molar.

Known results for binders:
hu179-10 (antibody, human IgG1, kappa, V domains shown, IgG1-YTE, kappa) VH: EVQLVQSGAEVKKPGSSVKVSCKASGYTFSNYLIEWVRQAPGQGLEWIGVIDPGNGDTNYNENFKGRATLTADKSTSTAYIELSSLRSEDTAVYYCAREDNTGTAFDYWGQGTTVTVSS VL: SIVMTQTPLSLSVTPGQPASISCKASQSVSSDVTWYLQKPGQSPQLLIYYVSNHYTGVPDRFSGSGSGTDFTFKISRVEAEDVGVYYCQQHHRFPLTFGQGTKLEIKR	9.72
hu119-14 (antibody, human IgG1, kappa, V domains shown, IgG1-YTE, kappa) VH: EVQLVQSGAEVKKPGSSVKVSCKASGGTFSTYNMHWVRQAPGQGLEWIGAIYPGNGETSYNQKFKDRATLTVDKSTSTAYMELSSLRSEDTAVYYCAREDDYGEGYFDVWGQGTTVTVSS VL: EIVLTQSPATLSLSPGERATLSCRASESVDNSGLSFMHWYQQKPGQAPRLLIYRASNLGSGIPARFSGSGSGTDFTLTISSLEPEDFAVYYCQQINTDPLTFGQGTKLEIKR	9.46
hu179-13 (antibody, human IgG1, kappa, V domains shown, IgG1-YTE, kappa) VH: EVQLVQSGAEVKKPGSSVKVSCKASGYTFSNYLIEWVKQAPGQGLEWIGVIDPGNGDTNYNENFKGKATLTADKSTSTAYIELSRLRSEDTAVYYCAREDNTGTAFDYWGQGTTVTVSS VL: DIVMTQSPDSLAVSLGERATINCKASQSVSSDVTWYQQKPGQSPKLLIYYVSNHYTGVPDRFSGSGSGTDFTLTISSLQAEDVAVYYCQQHHRFPLTFGQGTKLEIKR	9.70

**Query** Name the recorded pEC50 for hu179-20 (antibody, human IgG1, kappa, V domains shown, IgG1-YTE, kappa; also called hu179VH1-N55Q + hu179VL2) VH: EVQLVQSGAEVKKPGSSVKVSCKASGGTFSNYLIEWVRQAPGQGLEWMGVIDPGQGDTNYNENFKGRVTITADKSTSTAYMELSSLRSEDTAVYYCAREDNTGTAFDYWGQGTTVTVSS VL: DIVMTQSPDSLAVSLGERATINCKASQSVSSDVTWYQQKPGQSPKLLIYYVSNHYTGVPDRFSGSGSGTDFTLTISSLQAEDVAVYYCQQHHRFPLTFGQGTKLEIKR .
**Result** 9.15

**Query** Can you look up the measured pEC50 of Ch119 (antibody, human IgG1, kappa, V domains shown, murine variable regions on human IgG1-YTE / kappa; also called chimeric antibody corresponding to mab119) VH: QAYLQQSGAELVRPGASVKMSCKASGFAFTTYNMHWVKHTPGQGLEWIGAIYPGNGETSYNQKFKDRATLTVDKSSRTAYMQLSSLTSEDSAVYFCAREDDYGEGYFDVWGAGTTVTVSS VL: DIVLTQSPASLAVSLGQRATISCRASESVDNSGLSFMHWYQQKPGQPPRLLLYRASNLGSGIPARFSGSGSGTDFTLTLNPVETDDVATYYCQQINTDPLTFGAGTKLELKR for me?
**Result** 9.07

**Query** What value of pEC50 has been recorded for this entry: hu179-23 (antibody, human IgG1, kappa, V domains shown, IgG1-YTE, kappa) VH: EVQLVQSGAEVKKPGSSVKVSCKASGGTFSNYLIEWVRQAPGQGLEWMGVIDPGNGDTNYNENFKGRVTITADKSTSTAYMELSSLRSEDTAVYYCAREDNTGTAFDYWGQGTTVTVSS VL: DIVMTQSPDSLAVSLGERATINCKASQSVSSDVTWYQQKPGQSPKLLIYYVSDHYTGVPDRFSGSGSGTDFTLTISSLQAEDVAVYYCQQHHRFPLTFGQGTKLEIKR
**Result** 9.00

**Query** I am curious: what pEC50 value has been reported for hu119-09 (antibody, human IgG1, kappa, V domains shown, IgG1-YTE, kappa) VH: EVQLVQSGAEVKKPGSSVKVSCKASGGTFSTYNMHWVRQAPGQGLEWMGAIYPGNGETSYNQKFKDRVTITADKSTSTAYMELSSLRSEDTAVYYCAREDDYGEGYFDVWGQGTTVTVSS VL: DIVMTQSPDSLAVSLGERATINCRASESVDNSGLSFMHWYQQKPGQPPKLLLYRASNLGSGIPDRFSGSGSGTDFTLTISSLQAEDVAVYYCQQINTDPLTFGQGTKLEIKR ?
**Result** 9.83

**Query** May I ask what pEC50 has been recorded for hu179-06 (antibody, human IgG1, kappa, V domains shown, IgG1-YTE, kappa) VH: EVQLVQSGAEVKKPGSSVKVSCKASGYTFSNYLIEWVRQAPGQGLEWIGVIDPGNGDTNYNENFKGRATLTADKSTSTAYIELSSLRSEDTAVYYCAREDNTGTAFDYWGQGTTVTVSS VL: DIVMTQSPDSLAVSLGERATINCKASQSVSSDVTWYQQKPGQSPKLLIYYVSNHYTGVPDRFSGSGSGTDFTLTISSLQAEDVAVYYCQQHHRFPLTFGQGTKLEIKR ?
**Result** 9.66

**Query** Look at this binder and give its reported pEC50. hu3-05 (antibody, human IgG1, kappa, V domains shown, IgG1-YTE, kappa) VH: EVQLVQSGAEVKKPGASVKVSCKASGYTFTDDYMNWVRQAPGQRLEWMGIISPYNGGTSYNQKFKGRVTLTVDKSASTAYMELSSLRSEDTAVYYCAREDYDYDGYAMDHWGQGTTVTVSS VL: EIVLTQSPATLSLSPGERATLSCRASSSVSYMHWYQQKPGQAPRPLIYATSNLASGIPARFSGSGSGTDYTLTISRLEPEDFAVYYCQQWSSNRTFGGGTKVEIKR
**Result** 9.29

**Query** Bench note: what pEC50 did hu179-18 (antibody, human IgG1, kappa, V domains shown, IgG1-YTE, kappa) VH: EVQLVQSGAEVKKPGSSVKVSCKASGYAFSNYLIEWVRQAPGQGLEWIGVIDPGNGDTNYNENFKGRATLTADKSTSTAYMELSSLRSEDTAVYYCAREDNTGTAFDYWGQGTTVTVSS VL: SIVMTQTPLSLSVTPGQPASISCKASQSVSSDVTWYLQKPGQSPQLLIYYVSNHYTGVPDRFSGSGSGTDFTFKISRVEAEDVGVYYCQQHHRFPLTFGQGTKLEIKR show?
**Result** 9.61

Reference source: patent US20240016931A1
